src = ChEMBL document CHEMBL1961873

# TESTED_TARGET: Tyrosine-protein kinase Tec (Homo sapiens) (UniProt P42680);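 also: each value is the mean of the inhibition measurements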
# Sequence (P42680 whole entry): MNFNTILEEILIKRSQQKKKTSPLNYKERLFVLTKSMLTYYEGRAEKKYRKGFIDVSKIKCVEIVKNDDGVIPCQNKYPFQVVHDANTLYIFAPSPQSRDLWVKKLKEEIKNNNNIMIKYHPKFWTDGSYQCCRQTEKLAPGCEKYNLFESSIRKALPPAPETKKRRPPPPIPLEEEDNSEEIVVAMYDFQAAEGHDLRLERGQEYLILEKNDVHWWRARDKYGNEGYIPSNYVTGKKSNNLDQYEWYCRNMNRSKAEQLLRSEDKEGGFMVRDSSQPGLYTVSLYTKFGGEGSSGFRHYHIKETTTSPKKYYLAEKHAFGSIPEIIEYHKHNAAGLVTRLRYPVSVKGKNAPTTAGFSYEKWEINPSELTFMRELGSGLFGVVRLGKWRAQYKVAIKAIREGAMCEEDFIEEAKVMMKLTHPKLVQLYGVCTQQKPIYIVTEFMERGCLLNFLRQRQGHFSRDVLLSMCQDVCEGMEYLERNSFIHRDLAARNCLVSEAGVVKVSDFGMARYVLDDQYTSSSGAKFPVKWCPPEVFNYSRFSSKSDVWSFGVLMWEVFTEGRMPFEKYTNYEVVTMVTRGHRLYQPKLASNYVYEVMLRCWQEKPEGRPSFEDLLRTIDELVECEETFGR
# APPLIED_CONDITIONS: at 1 µM
Listed below: inhibition values for each entry.
Write the value in % as a bare number.

Look over these answered cases.
QUERY_SMILES	inhibition [%]
COc1ccc(-c2oc3ncnc(N)c3c2-c2ccc(NC(=O)Nc3cc(C(F)(F)F)ccc3F)cc2)cc1	14
CC(C)COC(=O)c1ccc2c(c1)/C(=C/Nc1ccc(S(N)(=O)=O)cc1)C(=O)N2	6.56
O=C(O[C@H]1CN[C@H](C#Cc2cc3ncnc(Nc4ccc(Cc5ccccc5)cc4)c3s2)C1)N1CCOCC1	4.05
NS(=O)(=O)c1ccc(Nc2ncc(-c3ccccc3)o2)cc1	7.4
COC(=O)c1sc(-n2cnc3cc(OC)c(OC)cc32)cc1OCc1ccccc1C(F)(F)F	6.98

Next, consider the following compound.
Lab note: need inhibition for `CNC(=O)c1cc(-c2ccc(F)cc2)cc(-c2ccc(S(=O)(=O)N3CCCC3)cc2)c1N` on Tyrosine-protein kinase Tec (Homo sapiens) (UniProt P42680), anyone have it?
3.29

----------
# TESTED_TARGET: MAP/microtubule affinity-regulating kinase 4 (Homo sapiens);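 also: reported value is a mean MARK4 inhibition at 1 µM, taken from the GSK PKIS screening set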
# APPLIED_CONDITIONS: at 1 µM
ASSAY_READOUT: inhibition (%)
Give just the number in %; leave the unit off.

COMPOUND	inhibition (%)
CC(C)(CO)CNC(=O)c1ccc2c(c1)/C(=N/Nc1ccc(S(N)(=O)=O)cc1)C(=O)N2	42.6

For the compound shown here, `COc1ccc(-c2nn3ncccc3c2-c2ccnc(Nc3ccc4c(c3)OCCO4)n2)cc1` , give the reported inhibition.
0.93

What do you get for CC1=C(C(=O)Nc2cc(Cl)c3[nH]ncc3c2)C(c2ccc(C(F)(F)F)cc2)CC(=O)N1 (stereo unspecified) ?
3.1

Moving on to `Cc1ccc(O)cc1Nc1ccnc2cc(-c3ccccn3)ccc12`
3.98

----------
# TESTED_TARGET: Sphingosine kinase 1 (Homo sapiens);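 also: mean SPHK1 inhibition value reported from the GSK PKIS kinase panel screen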
# APPLIED_CONDITIONS: at 1 µM
ASSAY_READOUT: inhibition (%)
# unit: % | format: bare number

May I ask what inhibition has been recorded for `O=C(Nc1n[nH]c2cc(-c3ccc(F)cc3)ccc12)C1CC1` ?
0.32

Moving on to the next compound: `COc1cc(N2CCN(C(C)C)CC2)ccc1Nc1nc(Nc2ccc(F)cc2C(N)=O)c2cc[nH]c2n1`
0.04

Item: `CCNC(=O)O[C@H]1CN[C@H](C#Cc2cc3ncnc(Nc4ccc(OCc5cccc(F)c5)c(Cl)c4)c3s2)C1`
-0.72

Check `[O-][S+]1CCN(Cc2ccc(-c3ccc4ncnc(Nc5ccc(OCc6cccc(F)c6)c(Cl)c5)c4c3)o2)CC1` too.
1.32

What do we get for `NS(=O)(=O)c1ccc(N/N=C2\C(=O)Nc3ccc4ncccc4c32)cc1` ?
-1.18

What do you have for `Fc1ccc(-c2nn3ccccc3c2-c2ccncc2)cc1` ?
-4.19

Repeat for the following compound: `COc1ccc2c(-c3ccnc(Nc4cccc(OC(F)(F)F)c4)n3)cnn2n1`
-1.74

Next compound: `COc1ccc(-c2cc(-c3c[nH]nc3-c3ccccn3)ccn2)cc1`
0.76

And for `COc1cc(Nc2nccc(Nc3ccc4c(C)n[nH]c4c3)n2)cc(OC)c1OC` ?
1.98

Now consider `CCCN(CCS(C)(=O)=O)Cc1ccc(-c2ccc3ncnc(Nc4ccc(OCc5cccc(F)c5)c(Cl)c4)c3c2)o1` and answer again.
0.07

----------
# TESTED_TARGET: CDK3/Cyclin E (Homo sapiens) (UniProt P24864+Q00526);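 also: each figure is a mean percent inhibition of the CDK3/cyclin E complex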
# Sequence (P24864 whole entry, looked up): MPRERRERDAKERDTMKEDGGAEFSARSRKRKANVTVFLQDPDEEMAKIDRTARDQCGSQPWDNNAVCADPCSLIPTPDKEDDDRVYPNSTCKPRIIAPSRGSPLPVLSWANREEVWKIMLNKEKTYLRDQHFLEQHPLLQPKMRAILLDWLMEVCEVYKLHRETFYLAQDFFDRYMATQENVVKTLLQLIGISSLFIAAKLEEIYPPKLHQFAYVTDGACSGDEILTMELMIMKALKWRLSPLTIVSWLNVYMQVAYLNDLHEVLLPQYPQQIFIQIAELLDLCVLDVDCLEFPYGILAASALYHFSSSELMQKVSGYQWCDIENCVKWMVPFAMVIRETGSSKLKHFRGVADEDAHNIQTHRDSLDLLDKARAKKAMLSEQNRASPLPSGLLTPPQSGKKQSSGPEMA
# Sequence (Q00526 whole entry, looked up): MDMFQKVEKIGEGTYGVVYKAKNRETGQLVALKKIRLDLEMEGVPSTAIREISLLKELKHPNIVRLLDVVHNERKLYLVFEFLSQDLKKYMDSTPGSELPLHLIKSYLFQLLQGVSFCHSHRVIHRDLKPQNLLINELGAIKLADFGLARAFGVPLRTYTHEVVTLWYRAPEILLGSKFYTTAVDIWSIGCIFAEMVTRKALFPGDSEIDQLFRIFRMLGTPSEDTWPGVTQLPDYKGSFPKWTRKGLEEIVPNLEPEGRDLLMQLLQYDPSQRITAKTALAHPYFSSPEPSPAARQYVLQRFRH
# APPLIED_CONDITIONS: at 1 µM
ASSAY_READOUT: inhibition (%)
Reply with just the number (in %).

# annotated cases, reported inhibition shown
QUERY_SMILES	UNIT_OF_MEASURE	inhibition
CCn1cc(-c2ccnc3[nH]ccc23)c(-c2cccc(NC(=O)Nc3ccc(OCc4ccccc4)cc3)c2)n1	%	-2.23
O=C(Nc1n[nH]c2cc(-c3ccc(F)cc3)ccc12)C1CC1	%	2.42
CCn1c(-c2nonc2N)nc2cnc(Oc3cccc(NC(=O)c4ccc(N(C)C)cc4)c3)cc21	%	-1.3
N#Cc1c(NC(=O)CN2CCOCC2)sc2c1CCCC2	%	0.79

Now, please, on to the next compound.
Hi! What's the reported inhibition for `CCOc1ccc2c(-c3ccnc(Nc4cccc(C(F)(F)F)c4)n3)cnn2n1` on CDK3/Cyclin E (Homo sapiens) (UniProt P24864+Q00526)?
1.6

----------
Entries and their inhibition values follow.
# TESTED_TARGET: cAMP-dependent protein kinase catalytic subunit PRKX (Homo sapiens);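 also: each value is the mean percent inhibition of the kinase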
# APPLIED_CONDITIONS: at 1 µM
Respond numerically; units are % and should not be typed.

For the compound `O=C(Nc1n[nH]c2cc(-c3ccc(F)cc3)ccc12)C1CC1` , what inhibition is on record?
3.66

Then this compound: `COc1cc(Nc2nccc(Nc3ccc4c(C)n[nH]c4c3)n2)cc(OC)c1OC`
-0.26

Moving on to `CS(=O)(=O)CCNCc1coc(-c2ccc3ncnc(Nc4ccc(OCc5ccccc5)cc4)c3c2)c1`
0.96

Now give it for `c1ccc(COc2ccc(Nc3ncnc4ccc(-c5ccco5)cc34)cc2)cc1` too.
0.89

Try the compound `CN1CCC(n2cnc(-c3ccc(F)cc3)c2-c2ccnc(N)n2)CC1`
1.95

Would you mind doing `NC(=O)c1sc(-n2cnc3ccc(C(F)(F)F)cc32)cc1OCc1ccccc1Br` as well?
8.33

Same question for `COc1ccc2c(-c3ccnc(Nc4cccc(OC(F)(F)F)c4)n3)cnn2n1` please.
3.71

----------
# TESTED_TARGET: Calcium/calmodulin-dependent protein kinase type II subunit delta (Homo sapiens) (UniProt Q13557);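 also: mean percent inhibition of CAMK2D, from screening of the GSK Published Kinase Inhibitor Set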
# Sequence (Q13557 whole entry): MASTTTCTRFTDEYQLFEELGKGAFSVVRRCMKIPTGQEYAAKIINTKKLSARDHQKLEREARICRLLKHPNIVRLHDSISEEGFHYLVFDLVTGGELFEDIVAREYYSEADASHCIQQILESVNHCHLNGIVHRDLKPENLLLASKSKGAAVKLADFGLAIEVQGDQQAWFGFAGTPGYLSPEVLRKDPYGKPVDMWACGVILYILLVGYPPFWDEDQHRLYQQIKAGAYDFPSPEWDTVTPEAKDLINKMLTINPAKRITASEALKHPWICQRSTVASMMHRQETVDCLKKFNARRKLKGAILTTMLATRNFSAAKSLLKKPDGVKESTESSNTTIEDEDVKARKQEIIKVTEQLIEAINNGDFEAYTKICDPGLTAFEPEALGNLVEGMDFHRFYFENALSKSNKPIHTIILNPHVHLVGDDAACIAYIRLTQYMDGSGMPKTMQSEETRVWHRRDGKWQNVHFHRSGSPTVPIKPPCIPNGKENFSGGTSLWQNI
# APPLIED_CONDITIONS: at 1 µM
ASSAY_READOUT: inhibition (%)
Report only the number, with the unit % understood.

Examples with their reported inhibition follow.
QUERY_SMILES	UNIT_OF_MEASURE	inhibition
COc1cc(/C=N/Nc2ncnc3[nH]ncc23)ccc1O	%	11.4
CCn1cc(-c2ccnc3[nH]ccc23)c(-c2cccc(NC(=O)Nc3ccc(OCc4ccccc4)cc3)c2)n1	%	-0.28
CC(=O)Nc1cccc(C#Cc2cncnc2Nc2ccc(OCc3cccc(F)c3)c(Cl)c2)c1	%	3.37

Consider the compound `CCn1c(-c2nonc2N)nc2c(C#CC(C)(C)O)ncc(OC3CCNCC3)c21` and give its measured inhibition.
8.15

----------
// inhibition lookup, one value per entry
# TESTED_TARGET: Mitogen-activated protein kinase 11 (Homo sapiens) (UniProt Q15759);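 also: values are mean percent inhibition of p38beta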
# Sequence (Q15759 whole entry): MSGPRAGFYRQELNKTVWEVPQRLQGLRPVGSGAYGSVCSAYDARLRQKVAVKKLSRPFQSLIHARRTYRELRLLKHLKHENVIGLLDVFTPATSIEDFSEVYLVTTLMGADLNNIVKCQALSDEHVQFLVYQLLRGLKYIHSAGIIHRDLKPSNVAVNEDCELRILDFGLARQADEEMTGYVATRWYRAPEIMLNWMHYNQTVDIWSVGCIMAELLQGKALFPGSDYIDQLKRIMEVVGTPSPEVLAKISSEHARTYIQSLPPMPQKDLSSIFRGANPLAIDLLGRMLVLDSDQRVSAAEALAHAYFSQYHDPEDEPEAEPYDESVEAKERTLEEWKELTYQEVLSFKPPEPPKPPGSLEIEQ
# APPLIED_CONDITIONS: at 1 µM
Give a bare numeral; the unit % is implied.

A selection of reference data follows.
QUERY_SMILES	inhibition [%]
COc1ccc(-c2cc(-c3c[nH]nc3-c3ccccn3)ccn2)cc1	14.1
CCn1c(-c2nonc2N)nc2cnc(Oc3cccc(NC(=O)c4ccc(N(C)C)cc4)c3)cc21	1.94
N#Cc1c(NC(=O)CN2CCOCC2)sc2c1CCCC2	7.38
COc1cc(N2CCN(C(C)C)CC2)ccc1Nc1nc(Nc2ccc(F)cc2C(N)=O)c2cc[nH]c2n1	9.48

Now examine the next entry.
Fill blank: measured inhibition of the compound `CCOc1ccc2c(-c3ccnc(Nc4cccc(C(F)(F)F)c4)n3)cnn2n1` is ____.
2.69

----------
# TESTED_TARGET: Protein-tyrosine kinase 6 (Homo sapiens)
# APPLIED_CONDITIONS: at 1 µM
# Description: GSK_PKIS: BRK mean inhibition at 1 uM [Nanosyn]
Could you label it T if measured inhibition is 5% or higher, and F otherwise?

Solved cases below.
QUERY_SMILES	TESTED_TARGET	LABEL_VALUE
COc1ccc(CNC(=O)c2ccc(-c3cc(-c4nnc(C)o4)ccc3C)cc2)cc1	Protein-tyrosine kinase 6 (Homo sapiens)	F
Fc1cccc(COc2ccc(Nc3ncnc4sc(-c5ccco5)cc34)cc2Cl)c1	Protein-tyrosine kinase 6 (Homo sapiens)	F
CCc1nn2ncccc2c1-c1ccnc(NC2CC2)n1	Protein-tyrosine kinase 6 (Homo sapiens)	F
Fc1ccc(-c2nn3ccccc3c2-c2ccncc2)cc1	Protein-tyrosine kinase 6 (Homo sapiens)	T
CS(=O)(=O)CCNCc1ccc(-c2ccc3ncnc(Nc4ccc(OCc5ccccc5)c(C(F)(F)F)c4)c3c2)o1	Protein-tyrosine kinase 6 (Homo sapiens)	F
CCCN(CCS(C)(=O)=O)Cc1ccc(-c2ccc3ncnc(Nc4ccc(OCc5cccc(F)c5)c(Cl)c4)c3c2)o1	Protein-tyrosine kinase 6 (Homo sapiens)	T
CN1CCC(n2cnc(-c3ccc(F)cc3)c2-c2ccnc(N)n2)CC1	Protein-tyrosine kinase 6 (Homo sapiens)	T
CC(=O)NCc1cccc(C#Cc2cncnc2Nc2ccc(OCc3cccc(F)c3)c(Cl)c2)c1	Protein-tyrosine kinase 6 (Homo sapiens)	F

Please tell me: is the compound `CCN1CCC(CC(=O)Nc2n[nH]c3nnc(-c4cccc(F)c4F)cc23)CC1` at or over 5% in terms of inhibition?
F

----------
As shown below, each of these compounds has a reported inhibition value.
# TESTED_TARGET: Glycogen synthase kinase-3 beta (Homo sapiens) (UniProt P49841)
# Sequence (P49841 whole entry, looked up): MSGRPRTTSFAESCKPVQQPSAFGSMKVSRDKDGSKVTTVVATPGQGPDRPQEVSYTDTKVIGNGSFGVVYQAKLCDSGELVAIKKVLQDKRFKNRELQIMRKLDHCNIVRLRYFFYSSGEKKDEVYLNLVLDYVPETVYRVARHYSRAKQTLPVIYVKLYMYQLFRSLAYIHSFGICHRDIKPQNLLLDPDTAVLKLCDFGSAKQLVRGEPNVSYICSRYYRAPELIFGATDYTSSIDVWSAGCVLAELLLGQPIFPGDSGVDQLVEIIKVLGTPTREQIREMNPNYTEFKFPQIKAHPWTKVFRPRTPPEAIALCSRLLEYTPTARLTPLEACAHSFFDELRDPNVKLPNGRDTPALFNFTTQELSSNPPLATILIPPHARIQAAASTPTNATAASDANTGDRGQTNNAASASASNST
# APPLIED_CONDITIONS: at 1 µM
Just the number in %, nothing appended.

Illustrative cases are given below, each with its answer.
QUERY_SMILES	inhibition (%)
CNC(=O)c1cccc(C#Cc2cncnc2Nc2ccc(OCc3cccc(F)c3)c(Cl)c2)c1	6.56
COc1ccc2c(-c3ccnc(Nc4cccc(OC(F)(F)F)c4)n3)cnn2n1	73.2

Which measured inhibition belongs to `CCn1c(-c2nonc2N)nc2c(C#CC(C)(C)O)ncc(OC3CCNCC3)c21` , tested on Glycogen synthase kinase-3 beta (Homo sapiens) (UniProt P49841)?;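 also: reported values are mean percent inhibition of GSK3B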
51.8

Can you check `COc1cc2ncn(-c3cc(OCc4ccccc4C(F)(F)F)c(C(=O)N(C)C)s3)c2cc1OC` next?
1.99

Same for `Clc1ccc(-c2nn3ncccc3c2-c2ccnc(Nc3ccccc3)n2)cc1`
26.2

Please give the result for `CCc1nn2ncccc2c1-c1ccnc(NC2CC2)n1` too.
7.53
